Task for the reader: assign each of the following compounds its reported IC50.
# target system: Disintegrin and metalloproteinase domain-containing protein 17 (Sus scrofa, UniProt O77636)
# Sequence (O77636 whole entry, the tested form may be a part): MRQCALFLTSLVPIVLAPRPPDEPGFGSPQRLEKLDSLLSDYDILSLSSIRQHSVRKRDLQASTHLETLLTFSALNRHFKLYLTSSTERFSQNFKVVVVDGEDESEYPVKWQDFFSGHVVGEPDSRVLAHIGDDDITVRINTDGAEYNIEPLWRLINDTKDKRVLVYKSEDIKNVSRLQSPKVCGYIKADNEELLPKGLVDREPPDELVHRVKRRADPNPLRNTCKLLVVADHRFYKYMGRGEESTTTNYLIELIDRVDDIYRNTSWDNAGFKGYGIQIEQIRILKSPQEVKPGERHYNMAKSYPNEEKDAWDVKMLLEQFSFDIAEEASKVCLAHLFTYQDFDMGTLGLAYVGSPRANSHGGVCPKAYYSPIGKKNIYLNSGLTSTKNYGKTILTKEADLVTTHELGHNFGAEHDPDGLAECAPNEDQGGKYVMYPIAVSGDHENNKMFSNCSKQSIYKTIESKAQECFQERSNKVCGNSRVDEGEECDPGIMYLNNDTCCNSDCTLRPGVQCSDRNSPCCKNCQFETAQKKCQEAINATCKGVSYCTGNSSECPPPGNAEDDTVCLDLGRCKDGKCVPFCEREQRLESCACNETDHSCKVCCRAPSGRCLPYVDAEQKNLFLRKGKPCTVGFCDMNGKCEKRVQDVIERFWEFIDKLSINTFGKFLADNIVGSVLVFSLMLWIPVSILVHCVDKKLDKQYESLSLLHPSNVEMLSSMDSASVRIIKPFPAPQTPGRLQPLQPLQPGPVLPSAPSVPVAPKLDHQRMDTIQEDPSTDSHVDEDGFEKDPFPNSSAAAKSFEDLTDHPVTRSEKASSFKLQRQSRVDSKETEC
One number for each entry, in nM.

C#CCOc1ccc(S(=O)(=O)N(C)c2c(C)cc(Br)cc2C(=O)NO)cc1: 11

Moving on to another compound below.
Q: Fill in the blank: the reported IC50 of `CCCCOc1ccc(S(=O)(=O)N(C)c2c(C)cc(Br)cc2C(=O)NO)cc1` is ____.
A: 67
